test system: trypsin; assay: in vitro; details: isolated enzyme trypsin
measuredParameter: remaining at 0.25 h, 100 µM (%)

CCCCCCCCCCCCCC(=O)N[C@@H](CC(N)=O)C(=O)N[C@@H](CC(C)C)C(=O)N[C@]1(C)CCCCCCC=CCCC[C@@](C)(C(=O)N[C@@H](CCC(=O)O)C(=O)N[C@@H](CC(C)C)C(=O)N[C@@H](CC(N)=O)C(N)=O)NC(=O)[C@H](CC(C)C)NC(=O)[C@H](CC(C)C)NC(=O)[C@H](CCCNC(=N)N)NC(=O)[C@H](CC(=O)O)NC(=O)[C@H](CC(C)C)NC(=O)[C@H](CCC(=O)O)NC1=O	91

The origin of these recorded values is paper PMC11871066.
